tgt: glutathione-S-transferase (GST) tagged LXRbeta LBD (ligand binding domain) (Homo sapiens, UniProt P55055)
Construct: purchased Invitrogen pv4658.pps
testName: LanthaScreen TR-FRET Liver X Receptor Coactivator Assay, co-activator recruitment to LXRbeta LBD
Type: biochemical
statedConditions: efficacy at max dose, in relation to reference dual agonist T0901317; read-out: LXR beta Activity @ max dose (%)
quantity: Emax (%)

COc1cccc([C@@](O)(C(=O)N2CCC(CC3CCN(c4ccc(C(=O)N(C)C)c(C)n4)CC3)CC2)C(F)(F)F)c1 | 69
CCOc1cccc([C@@](O)(C(=O)N2CCC(CC3CCN(c4ccc(C(=O)N(C)C)c(C5CC5)n4)CC3)CC2)C(F)(F)F)c1 | 71
CN(C)C(=O)c1ccc(N2CCC(CC3CCN(C(=O)[C@](O)(c4cccc(Br)c4)C(F)(F)F)CC3)CC2)nc1Cl | 73
O=C(c1ccc(N2CCC(CC3CCN(C(=O)[C@](O)(c4ccccc4)C(F)(F)F)CC3)CC2)cc1Cl)N1CC[C@@H](CO)C1 | 56
COc1cccc([C@@](O)(C(=O)N2CC(CC3CCN(c4ccc(C(=O)N(C)C)c(Cl)c4)CC3)C2)C(F)F)c1 | 48
COc1cccc(C(O)(C(=O)N2CCC(OC3CCN(c4ccc(C(=O)N(C)C)c(Cl)c4)CC3)CC2)C(F)(F)F)c1 (stereo not shown) | 68
Cc1cc(N2CCC(CC3CCN(C(=O)[C@](O)(c4cccc(OC(F)(F)F)c4)C(F)(F)F)CC3)CC2)ccc1C(=O)N(C)C | 56

* * *

tgt: glutathione-S-transferase (GST) tagged LXRbeta LBD (ligand binding domain) (Homo sapiens, UniProt P55055)
Construct: purchased Invitrogen pv4658.pps
Sequence (P55055 222-460 limits assumed): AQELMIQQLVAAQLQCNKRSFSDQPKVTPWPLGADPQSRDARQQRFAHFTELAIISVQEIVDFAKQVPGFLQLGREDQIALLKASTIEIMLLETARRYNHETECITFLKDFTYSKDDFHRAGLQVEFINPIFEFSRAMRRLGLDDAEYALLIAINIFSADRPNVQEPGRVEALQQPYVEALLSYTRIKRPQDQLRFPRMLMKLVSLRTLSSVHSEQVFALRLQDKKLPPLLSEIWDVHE
testName: LanthaScreen TR-FRET Liver X Receptor Coactivator Assay, co-activator recruitment to LXRbeta LBD
Type: biochemical
statedConditions: potency (Inflection Point, IP), co-activator recruitment to LXRbeta LBD, in relation to T0901317; read-out: LXR beta IP
pEC50: −log10 of the molar value.
quantity: pEC50

COc1cccc([C@@](O)(C(=O)N2CCC(CC3CN(c4ccc(C(=O)N(C)C)c(C)n4)C3)CC2)C(F)(F)F)c1 | 5.94
Cc1cc(F)cc(C(O)(C(=O)N2CCC(CC3CCN(c4ccc(C(=O)N(C)C)c(Cl)c4)CC3)CC2)C(F)(F)F)c1 (centres unmarked) | 7.92
CN(C)C(=O)c1ccc(N2CCC(CC3CCN(C(=O)C(O)(c4cc(Cl)cc(Cl)c4)C(F)(F)F)CC3)CC2)nc1Cl (centres unmarked) | 8.10
COc1cc(Cl)cc([C@@](O)(C(=O)N2CCC(CC3CCN(c4ccc(C(=O)N(C)C)cc4)CC3)CC2)C(F)(F)F)c1 | 7.13
CNC(=O)c1ccc(N2CCC(OC3CCN(C(=O)C(O)(c4cccc(C)c4)C(F)(F)F)CC3)CC2)cc1Cl (centres unmarked) | 6.75
COc1cccc([C@@](O)(C(=O)N2CCCC(CC3CCN(c4ccc(C(=O)N(C)C)c(Cl)c4)CC3)CC2)C(F)(F)F)c1 (some centres unmarked) | 7.89

A. Cc1cccc([C@@](O)(C(=O)N2CCC(CC3CCN(c4ccc(C(=O)N(C)C)c(C)c4)CC3)CC2)C(F)(F)F)c1
B. CN(C)C(=O)c1ccc(N2CCC(CC3CCN(C(=O)C(O)(c4cccc5ccccc45)C(F)(F)F)CC3)CC2)cc1Cl (centres unmarked)
C. CN(C)C(=O)c1ccc(N2CCC(CC3CCN(C(=O)c4c(F)cccc4F)CC3)CC2)cc1Cl
D. CNC(=O)c1ccc(N2CCC(CC3CCN(C(=O)[C@](O)(c4cccc(OC)c4)C(F)(F)C(F)(F)F)CC3)CC2)nc1Cl
E. CN(C)C(=O)c1ccc(N2CCC(CC3CCN(C(=O)C(O)(Cc4ccccc4)C(F)(F)F)CC3)CC2)cc1Cl (centres unmarked)
[ask] Could you please sort these 5 entries by pEC50 from high to low? List each label, following the requested order.
[reply] A, D, B, E, C
(A: 7.80, D: 7.52, B: 7.24, E: 6.96, C: 6.45)
